# Tested on: Hepatitis C virus
# test_method_notes: Antiviral activity against HCV Con1 GT1b by replicon assay
# Type: functional, organism-based, Hepacivirus hominis
# test_settings: Hepatitis C virus, Con1 GT1b
quantity_measured: pEC50
Convention used: pEC50 is expressed as -log10 of the molar concentration.

molecule: COc1ccccc1OP(=O)(N[C@@H](C)C(=O)OCc1ccccc1)OC[C@@]1(N=[N+]=[N-])O[C@@H](n2ccc(N)nc2=O)[C@H](O)[C@@H]1O (stereo partly drawn)
pEC50: 5.64

Now examine the next entry.
Entry C[C@H](NP(=O)(OC[C@@]1(N=[N+]=[N-])O[C@@H](n2ccc(N)nc2=O)[C@H](O)[C@@H]1O)Oc1ccc(Cl)c(Cl)c1)C(=O)OCc1ccccc1 (stereo partly drawn) has what pEC50?
5.04

* * *

# Tested on: Hepatitis C virus
# test_method_notes: Antiviral activity against HCV Con1 GT1b by replicon assay
# Assay type: functional, organism-based, Hepacivirus hominis
# test_settings: Hepatitis C virus, Con1 GT1b
quantity_measured: EC50 (µM)
Just the number in µM, nothing appended.

compound: CC(C)[C@H](NP(=O)(OC[C@@]1(N=[N+]=[N-])O[C@@H](n2ccc(N)nc2=O)[C@H](O)[C@@H]1O)Oc1ccccc1)C(=O)OCc1ccccc1 (some centres not stated)
quantity_unit: µM
value_measured: 5.6

Entry CCOC(=O)[C@H](CC(C)C)NP(=O)(OC[C@@]1(N=[N+]=[N-])O[C@@H](n2ccc(N)nc2=O)[C@H](O)[C@@H]1O)Oc1ccc(C)cc1 (some centres not stated) has what EC50?
4.3

Entry Cc1ccccc1OP(=O)(N[C@@H](C)C(=O)OCc1ccccc1)OC[C@@]1(N=[N+]=[N-])O[C@@H](n2ccc(N)nc2=O)[C@H](O)[C@@H]1O (some centres not stated) has what EC50?
1.3

Entry CCOC(=O)[C@H](CC(C)C)NP(=O)(OC[C@@]1(N=[N+]=[N-])O[C@@H](n2ccc(N)nc2=O)[C@H](O)[C@@H]1O)Oc1ccccc1 (some centres not stated) has what EC50?
11

Entry C[C@H](NP(=O)(OC[C@@]1(N=[N+]=[N-])O[C@@H](n2ccc(N)nc2=O)[C@H](O)[C@@H]1O)Oc1ccc(Br)cc1)C(=O)OCc1ccccc1 (some centres not stated) has what EC50?
6.5

Entry C[C@H](NP(=O)(OC[C@@]1(N=[N+]=[N-])O[C@@H](n2ccc(N)nc2=O)[C@H](O)[C@@H]1O)Oc1ccc2ccccc2c1)C(=O)OCc1ccccc1 (single isomer, unassigned; diastereomer 2) has what EC50?
2.9

Entry COc1cccc(OP(=O)(N[C@@H](C)C(=O)OCc2ccccc2)OC[C@@]2(N=[N+]=[N-])O[C@@H](n3ccc(N)nc3=O)[C@H](O)[C@@H]2O)c1 (some centres not stated) has what EC50?
8.8

Entry CCCCOC(=O)[C@H](C)NP(=O)(OC[C@@]1(N=[N+]=[N-])O[C@@H](n2ccc(N)nc2=O)[C@H](O)[C@@H]1O)Oc1ccccc1 (some centres not stated) has what EC50?
11

Entry CC(C)OC(=O)[C@H](Cc1ccccc1)NP(=O)(OC[C@@]1(N=[N+]=[N-])O[C@@H](n2ccc(N)nc2=O)[C@H](O)[C@@H]1O)Oc1ccccc1 (some centres not stated) has what EC50?
2.9

Entry CCCCOC(=O)[C@@H](C)NP(=O)(OC[C@@]1(N=[N+]=[N-])O[C@@H](n2ccc(N)nc2=O)[C@H](O)[C@@H]1O)Oc1ccccc1 (some centres not stated) has what EC50?
0.94

Entry CCOC(=O)[C@H](C)NP(=O)(OC[C@@]1(N=[N+]=[N-])O[C@@H](n2ccc(N)nc2=O)[C@H](O)[C@@H]1O)Oc1ccccc1 (some centres not stated) has what EC50?
0.38
